System: UniProt:P43405 | Read-out: pIC50 | Origin: multiple publications
pIC50: −log10 of the molar value.

# compound, pIC50
rows = [
    ("Cc1ccc(C(=O)Nc2n[nH]c3c2CCCn2cc(C(=O)N4CCCC4)cc2-3)cc1F", 5.68),
    ("COC1=CC2C=CN=C2C=C1Nc1nc2c(N3CCC4(CC3)CNC(=O)O4)nccn2n1 (centres unmarked)", "4.30 to 5.52"),
    ("COc1ccc(C(N)=O)cc1-c1cc2nccc(-c3cc[nH]c3)c2o1", "6.52 to 7.00"),
    ("Cn1cc(Nc2nc3c(-c4cnn(C)c4)nccn3n2)cn1", "5.52 to 6.52"),
    ("O=c1[nH]ncc2nc(N3CCCCCC3)nc(Nc3ccc(N4CCN(CCO)CC4)cc3)c12", "> 8.00"),
    ("Cn1c(=O)c(Nc2ccc(N3CCOCC3)cc2)nc2ccc(-c3cn[nH]c3)c(F)c21", 8.02),
    ("COc1cc(Nc2nc3c(-c4cccc(NS(C)(=O)=O)c4)nccn3n2)cc(OC)c1", "> 6.52"),
    ("COc1cc(-c2cc3nccc(-c4ccc5[nH]nnc5c4)c3o2)cc(OC)c1OC", "> 6.52"),
]
